Recorded pIC50 for the following molecules
measured target: MAO-B (Rattus norvegicus)
Construct: from tissue; host or cells: Sprague-Dawley rat liver, mitochondrial fraction
test name: MAO-B inhibition, mitochondrial portion of rat (IC50, time dependence, irreversibility), substrate PEA
Type: biochemical, Sprague-Dawley rat
stated conditions: MAO-B (lines B..), substrate PEA, 0 min incubation, rat mitochondria; read-out: IC50 0 min
When answering, recall that pIC50 equals minus log10 of the concentration in mol/L, and write that number alone.

# example entries with known answers
• CC#CCN(CC#CC)Cc1cc2cc(OCc3ccccc3)ccc2[nH]1 = 4.60
• C=C=CCN(CC=C=C)Cc1cc2cc(OCc3ccccc3)ccc2[nH]1 = 5.51
• C#CCN(CC#C)Cc1cc2cc(OCc3ccccc3)ccc2n1C = 4.71

Please give the measured pIC50 for this molecule: `C=C=CCNCc1cc2cc(OCc3ccccc3)ccc2[nH]1`
6.40

Please give the measured pIC50 for this molecule: `CC#CCNCc1cc2cc(OCc3ccccc3)ccc2[nH]1`
5.80

Please give the measured pIC50 for this molecule: `C=C=CCNCc1cc2cc(OCc3ccccc3)ccc2n1C`
6.10

====

measured target: MAO-A (Rattus norvegicus)
Construct: human and rat tissue to obtain the isolated forms of monoamine oxidase A and B; from tissue
Sequence (P21396 whole entry): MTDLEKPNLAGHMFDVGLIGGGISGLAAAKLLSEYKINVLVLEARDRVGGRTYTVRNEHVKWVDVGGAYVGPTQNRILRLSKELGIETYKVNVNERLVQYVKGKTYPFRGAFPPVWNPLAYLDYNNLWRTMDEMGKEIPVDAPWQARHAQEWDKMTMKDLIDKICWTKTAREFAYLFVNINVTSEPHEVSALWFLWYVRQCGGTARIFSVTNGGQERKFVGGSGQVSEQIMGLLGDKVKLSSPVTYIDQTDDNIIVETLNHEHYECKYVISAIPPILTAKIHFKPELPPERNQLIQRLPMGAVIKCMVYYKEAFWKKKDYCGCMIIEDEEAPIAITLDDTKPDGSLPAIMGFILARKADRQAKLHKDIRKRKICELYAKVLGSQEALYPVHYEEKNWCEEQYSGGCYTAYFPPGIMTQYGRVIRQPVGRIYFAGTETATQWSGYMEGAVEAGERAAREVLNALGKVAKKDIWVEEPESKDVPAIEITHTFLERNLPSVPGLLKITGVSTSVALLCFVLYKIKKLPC
test name: Kinetic parameters of suicide-type inhibition, MAO-A
Format: biochemical, Sprague-Dawley rat
stated conditions: MAO-A; inhibition efficacy
Recorded K^1cat / K1(10^-3) for the following compounds

Please give the measured K^1cat / K1(10^-3) for this compound: `C=C=CCNCc1cc2cc(OCc3ccccc3)ccc2n1C`
6.0 10^-3

Please give the measured K^1cat / K1(10^-3) for this compound: `C=C=CCN(CC=C=C)Cc1cc2cc(OCc3ccccc3)ccc2[nH]1`
0.014 10^-3

Please give the measured K^1cat / K1(10^-3) for this compound: `C#CCN(CC#C)Cc1cc2cc(OCc3ccccc3)ccc2n1C`
5.6 10^-3

Please give the measured K^1cat / K1(10^-3) for this compound: `C#CCNCc1cc2cc(OCc3ccccc3)ccc2[nH]1`
0.1 10^-3

Please give the measured K^1cat / K1(10^-3) for this compound: `CC#CCN(CC#CC)Cc1cc2cc(OCc3ccccc3)ccc2[nH]1`
0.014 10^-3

Please give the measured K^1cat / K1(10^-3) for this compound: `C=C=CCNCc1cc2cc(OCc3ccccc3)ccc2[nH]1`
0.47 10^-3

Please give the measured K^1cat / K1(10^-3) for this compound: `CC#CCNCc1cc2cc(OCc3ccccc3)ccc2[nH]1`
0.04 10^-3

====

measured target: MAO-B (Rattus norvegicus, UniProt P19643)
Construct: from tissue; host or cells: Sprague-Dawley rat liver, mitochondrial fraction
Sequence (P19643 whole entry): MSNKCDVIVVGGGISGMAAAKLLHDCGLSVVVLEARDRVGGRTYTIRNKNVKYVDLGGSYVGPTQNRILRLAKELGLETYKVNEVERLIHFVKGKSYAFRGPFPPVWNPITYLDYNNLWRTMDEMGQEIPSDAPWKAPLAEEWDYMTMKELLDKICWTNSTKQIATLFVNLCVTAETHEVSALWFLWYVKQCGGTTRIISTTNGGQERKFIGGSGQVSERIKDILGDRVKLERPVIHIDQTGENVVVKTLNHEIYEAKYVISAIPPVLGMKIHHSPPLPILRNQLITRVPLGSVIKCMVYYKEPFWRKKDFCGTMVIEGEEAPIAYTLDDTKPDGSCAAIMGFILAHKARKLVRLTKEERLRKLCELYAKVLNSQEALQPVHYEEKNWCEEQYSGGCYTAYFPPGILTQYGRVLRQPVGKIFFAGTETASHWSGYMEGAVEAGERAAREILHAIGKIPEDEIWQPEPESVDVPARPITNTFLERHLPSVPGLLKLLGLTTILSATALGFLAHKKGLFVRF
test name: MAO-B inhibition, mitochondrial portion of rat (IC50, time dependence, irreversibility), substrate PEA
Format: biochemical, Sprague-Dawley rat
stated conditions: IC50 30 min., MAO-B (lines B..), substrate PEA, 30 min incubation, rat mitochondria
endpoint name: IC50 (nM)
Respond numerically; units are nM and should not be typed.

# example entries with known answers
- CC#CCNCc1cc2cc(OCc3ccccc3)ccc2[nH]1 [FA-74]: 250
- CC#CCN(CC#CC)Cc1cc2cc(OCc3ccccc3)ccc2[nH]1 [FA-77]: 10
- C=C=CCN(CC=C=C)Cc1cc2cc(OCc3ccccc3)ccc2[nH]1 [FA-78]: 190

Please give the measured IC50 for this compound: C#CCN(CC#C)Cc1cc2cc(OCc3ccccc3)ccc2n1C [FA-98]
2500

Please give the measured IC50 for this compound: C=C=CCNCc1cc2cc(OCc3ccccc3)ccc2n1C [FA-97]
12

Please give the measured IC50 for this compound: C=C=CCNCc1cc2cc(OCc3ccccc3)ccc2[nH]1 [FA-75]
25

Please give the measured IC50 for this compound: C#CCNCc1cc2cc(OCc3ccccc3)ccc2[nH]1 [FA-73]
15
